test system: HL60 cells; experiment: Anti-proliferation on HL60 cells (CellTiter-Glo, 3 days); type: cell-based; conditions: Homo sapiens, HL-60, 72 h, 3 days incubation, CTG luminescence, IC50 by XLfit, read-out: HL60 cells Proliferation inhibitory activity
For each of the compounds below, state its IC50.
Give the value in nM but do not write nM after it.

Query :: Query (compound): "O=C1C[C@H](N2Cc3cc(CNCC4CCN(c5ncc(-c6cccc(Cl)c6)cc5C(F)(F)F)CC4)ccc3C2=O)C(=O)N1" ; field requested: IC50
Result :: 46.3

Query :: Query (compound): COc1cccc(-c2cnc(N3CCC(CCNc4ccc5c(c4)CN(C4CCC(=O)NC4=O)C5=O)CC3)c(C(F)(F)F)c2)c1 (stereo not shown) ; field requested: IC50
Result :: 8.37

Query :: Query (compound): O=C1CCC(N2Cc3cc(CNCC4(F)CCN(c5ncc(-c6cccc(F)c6)cc5F)CC4)ccc3C2=O)C(=O)N1 (stereo not shown) ; field requested: IC50
Result :: 1.76

Query :: Query (compound): CC(C)c1cnc(N2CCC(CC(=O)Nc3ccc4c(c3)CN(C3CCC(=O)NC3=O)C4=O)CC2)nc1 (stereo not shown) ; field requested: IC50
Result :: 0.6

Query :: Query (compound): COc1cccc(-c2cnc(N3CCC(F)(CNCc4ccc5c(c4)CN(C4CCC(=O)NC4=O)C5=O)CC3)c(C(F)(F)F)c2)c1 (stereo not shown) ; field requested: IC50
Result :: 4.69

Query :: Query (compound): O=C1CCC(n2cc(-c3ccc(CNCC4CCN(c5ncc(-c6cccc(Cl)c6)cc5C(F)(F)F)CC4)cc3)nn2)C(=O)N1 (stereo not shown) ; field requested: IC50
Result :: 109

Query :: Query (compound): CN(C)c1cccc(-c2cnc(N3CCC(CNCc4ccc5c(c4)CN(C4CCC(=O)NC4=O)C5=O)CC3)c(C(F)(F)F)c2)c1 (stereo not shown) ; field requested: IC50
Result :: 0.4

Query :: Query (compound): O=C1CCC(N2Cc3cc(C(=O)NCC4CCN(c5ccc(-c6cccc7ccccc67)nc5)CC4)ccc3C2=O)C(=O)N1 (stereo not shown) ; field requested: IC50
Result :: 0.3

Query :: Query (compound): O=C1CCC(N2Cc3cc(NC(=O)CC4CCN(c5ccc(-c6cccc7ccccc67)nc5)CC4)ccc3C2=O)C(=O)N1 (stereo not shown) ; field requested: IC50
Result :: 0.2

Query :: Query (compound): O=C1CCC(N2Cc3cc(NC(=O)CC4CCN(c5cccc(-c6cccc7ccccc67)c5)CC4)ccc3C2=O)C(=O)N1 (stereo not shown) ; field requested: IC50
Result :: 4

====

Test system: HL60 cells
Assay: Anti-proliferation on HL60 cells (CellTiter-Glo, 3 days)
Format: cell-based
Settings: Homo sapiens, HL-60, 72 h, 3 days incubation, CTG luminescence, IC50 by XLfit, read-out: HL60 cells Proliferation inhibitory activity
Protocol: HL60 cells (Cell Bank of Chinese Academy of Sciences) in the logarithmic growth phase were counted and plated evenly in a 96-well transparent bottom white plate at 20000 cells per well and 100 μL per well. A certain amount of the compound of the present invention was weighed and diluted with DMSO to a 10 mM stock solution. […]
For each of the compounds below, state its IC50.
Give the value in nM but do not write nM after it.

Query :: Query (compound): O=C(CN1CCC(CNC(=O)c2ccc3c(c2)CN(C2CCC(=O)NC2=O)C3=O)CC1)NCCn1c2ccccc2c2cccnc21 (stereo not drawn) ; field requested: IC50
Result :: 94

Query :: Query (compound): O=C1CCC(N2Cc3cc(CNCC4CCN(c5ncc(-c6cccc(Cl)c6)cc5C(F)F)CC4)ccc3C2=O)C(=O)N1 (stereo not drawn) ; field requested: IC50
Result :: 3.97

Query :: Query (compound): "O=C1CC[C@@H](N2Cc3cc(CNCC4(F)CCN(c5ncc(-c6cccc(Cl)c6)cc5C(F)(F)F)CC4)ccc3C2=O)C(=O)N1" ; field requested: IC50
Result :: 9.04

Query :: Query (compound): "Cn1nc(N2CCC(=O)NC2=O)c2cc(CNCC3CCN(c4ncc(-c5cccc(Cl)c5)cc4C(F)(F)F)CC3)ccc21" ; field requested: IC50
Result :: 5210

Query :: Query (compound): O=C1CCC(N2Cc3cc(NC(=O)CC4CCN(c5cccc(-c6cccc7ccccc67)n5)CC4)ccc3C2=O)C(=O)N1 (stereo not drawn) ; field requested: IC50
Result :: 1

Query :: Query (compound): O=C1CCC(N2Cc3cc(NC(=O)CC4CCN(c5ccc(-c6ccc7ccccc7c6)cn5)CC4)ccc3C2=O)C(=O)N1 (stereo not drawn) ; field requested: IC50
Result :: 0.2

====

For each of the compounds below, state its pIC50.
tested on: HL60 cells; test: Anti-proliferation on HL60 cells (CellTiter-Glo, 3 days); type: cell-based; settings: Homo sapiens, HL-60, 72 h, 3 days incubation, CTG luminescence, IC50 by XLfit, read-out: HL60 cells Proliferation inhibitory activity
pIC50 here is simply -log10 of the concentration when that concentration is written in mol/L.

Query :: Query (compound): O=C1CCC(N2Cc3cc(C(=O)NCC4CCN(c5cccc(-c6cccc7ccccc67)n5)CC4)ccc3C2=O)C(=O)N1 (stereo not drawn) ; field requested: pIC50
Result :: 9.05

Query :: Query (compound): O=C1CCC(NC(=O)c2ccc(CNCC3CCN(c4ncc(-c5cccc(Cl)c5)cc4C(F)(F)F)CC3)cn2)C(=O)N1 (stereo not drawn) ; field requested: pIC50
Result :: 6.57

Query :: Query (compound): Cc1cc(Cl)cc(-c2cnc(N3CCC(CNCc4ccc5c(c4)CN(C4CCC(=O)NC4=O)C5=O)CC3)c(C(F)(F)F)c2)c1 (stereo not drawn) ; field requested: pIC50
Result :: 7.96

Query :: Query (compound): O=C1CCC(N2Cc3nc(CNCC4CCN(c5ncc(-c6cccc(Cl)c6)cc5C(F)(F)F)CC4)ccc3C2=O)C(=O)N1 (stereo not drawn) ; field requested: pIC50
Result :: 6.80

====

For each of the molecules below, state its pIC50.
test system: HL60 cells; experiment: Anti-proliferation on HL60 cells (CellTiter-Glo, 3 days); type: cell-based; settings: Homo sapiens, HL-60, 72 h, 3 days incubation, CTG luminescence, IC50 by XLfit, read-out: HL60 cells Proliferation inhibitory activity
pIC50 here is simply -log10 of the concentration when that concentration is written in mol/L.

Query :: Query (molecule): O=C1CCC(N2Cc3cc(NC(=O)CC4CCN(c5ncc(-c6ccccn6)cn5)CC4)ccc3C2=O)C(=O)N1 (stereo not shown) [Compound A59] ; field requested: pIC50
Result :: 9.15

Query :: Query (molecule): O=C1CCC(N2Cc3cc(CNCC4CCN(c5ncc(-c6cccc(F)c6)cc5C(F)(F)F)CC4)ccc3C2=O)C(=O)N1 (stereo not shown) [Compound A93] ; field requested: pIC50
Result :: 8.80

Query :: Query (molecule): CN(C(=O)c1ccc(CNCC2CCN(c3ncc(-c4cccc(Cl)c4)cc3C(F)(F)F)CC2)cc1)C1CCC(=O)NC1=O (stereo not shown) [Compound A163] ; field requested: pIC50
Result :: 5.08

Query :: Query (molecule): O=C1CCC(N2Cc3cc(CNCC4CCN(c5ncc(-c6cccc(Cl)c6)cc5C(F)(F)F)CC4)ncc3C2=O)C(=O)N1 (stereo not shown) [Compound A142] ; field requested: pIC50
Result :: 6.40

Query :: Query (molecule): O=C1CCC(NC(=O)c2ccc(CNCC3CCN(c4ncc(-c5cccc(Cl)c5)cc4C(F)(F)F)CC3)c(Br)c2)C(=O)N1 (stereo not shown) [Compound A160] ; field requested: pIC50
Result :: 5.96

Query :: Query (molecule): Cc1nc2ccc(CNCC3CCN(c4ncc(-c5cccc(Cl)c5)cc4C(F)(F)F)CC3)cc2c(=O)n1C1CCC(=O)NC1=O (stereo not shown) [Compound A151] ; field requested: pIC50
Result :: 6.16

Query :: Query (molecule): N#Cc1cccc(-c2cnc(N3CCC(CNCc4ccc5c(c4)CN(C4CCC(=O)NC4=O)C5=O)CC3)nc2)c1 (stereo not shown) [Compound A69] ; field requested: pIC50
Result :: 7.66

Query :: Query (molecule): O=C1CCC(N2Cc3cc(CNCC4CC5CCC(C4)N5c4ncc(-c5cccc(Cl)c5)cc4C(F)(F)F)ccc3C2=O)C(=O)N1 (stereo not shown) [Compound A90] ; field requested: pIC50
Result :: 7.34

Query :: Query (molecule): O=C1CC[C@@H](N2Cc3cc(CNCC4CCN(c5ncc(-c6cccc(F)c6)cc5F)CC4)ccc3C2=O)C(=O)N1 [Compound A126] ; field requested: pIC50
Result :: 8.17

====

system: HL60 cells; assay: Anti-proliferation on HL60 cells (CellTiter-Glo, 3 days); assay type: cell-based; details: Homo sapiens, HL-60, 72 h, 3 days incubation, CTG luminescence, IC50 by XLfit, read-out: HL60 cells Proliferation inhibitory activity
quantityName: IC50 (nM)
Give the value in nM but do not write nM after it.

Query :: Query (molecule): Cc1ccc(N2CCN(Cc3ccc(C(=O)NCc4ccc5c(c4)CN(C4CCC(=O)NC4=O)C5=O)cc3)CC2)cc1Cl (centres unmarked) ; field requested: IC50
Result :: 0.54

Query :: Query (molecule): O=C1CCC(NC(=O)c2ccc(CNCC3CCN(c4ncc(-c5cccc(Cl)c5)cc4C(F)(F)F)CC3)cc2)C(=O)N1 (centres unmarked) ; field requested: IC50
Result :: 825

Query :: Query (molecule): O=C(CC1CCN(c2ncc(-c3cccc4ccccc34)cn2)CC1)Nc1ccc2c(c1)CN(C1CCC(=O)N(COP(=O)(O)O)C1=O)C2=O (centres unmarked) ; field requested: IC50
Result :: 12

Query :: Query (molecule): O=C1CCC(N2Cc3ccc(CNCC4CCN(c5ncc(-c6cccc(Cl)c6)cc5C(F)(F)F)CC4)cc3C2)C(=O)N1 (centres unmarked) ; field requested: IC50
Result :: 387

Query :: Query (molecule): O=C1CCC(NC(=O)c2ccc(C(=O)NCC3CCN(c4ncc(-c5cccc(Cl)c5)cc4C(F)(F)F)CC3)cc2)C(=O)N1 (centres unmarked) ; field requested: IC50
Result :: 2670

Query :: Query (molecule): O=C1CCC(N2Cc3cc(C(=O)NCC4CCN(c5nccc(-c6ccc7ccccc7c6)n5)CC4)ccc3C2=O)C(=O)N1 (centres unmarked) ; field requested: IC50
Result :: 0.9

Query :: Query (molecule): O=C1CCC(N2Cc3cc(CCCC4CCN(c5ncc(-c6cccc(Cl)c6)cc5C(F)(F)F)CC4)ccc3C2=O)C(=O)N1 (centres unmarked) ; field requested: IC50
Result :: 223

Query :: Query (molecule): O=C1CCC(N2Cc3cc(NC(=O)CC4CCN(c5ncc(-c6cccc7ccccc67)s5)CC4)ccc3C2=O)C(=O)N1 (centres unmarked) ; field requested: IC50
Result :: 0.5

Query :: Query (molecule): O=C1CCC(N2Cc3cc(CNCC4CCN(c5cnc(-c6cccc7ccccc67)nc5)CC4)ccc3C2=O)C(=O)N1 (centres unmarked) ; field requested: IC50
Result :: 10

Query :: Query (molecule): O=C1CCC(N2Cc3cc(CNCC4CCN(c5cnc(-c6cccc7ccccc67)cn5)CC4)ccc3C2=O)C(=O)N1 (centres unmarked) ; field requested: IC50
Result :: 0.2

Query :: Query (molecule): O=C(CN1CCC(CNC(=O)c2ccc3c(c2)CN(C2CCC(=O)NC2=O)C3=O)CC1)NCc1cccc2ccccc12 (centres unmarked) ; field requested: IC50
Result :: 192

Query :: Query (molecule): O=C1CCC(N2Cc3cc(C(=O)NCC4CCN(c5ncc(-c6cccc7ccccc67)s5)CC4)ccc3C2=O)C(=O)N1 (centres unmarked) ; field requested: IC50
Result :: 0.2

Query :: Query (molecule): COc1cccc(-c2cnc(N3CCC(F)(C(=O)NCc4ccc5c(c4)CN(C4CCC(=O)NC4=O)C5=O)CC3)c(F)c2)c1 (centres unmarked) ; field requested: IC50
Result :: 1.09

Query :: Query (molecule): O=C1CCC(N2Cc3cc(CNCC4CCN(c5ncc(-c6ccccc6Cl)cc5F)CC4)ccc3C2=O)C(=O)N1 (centres unmarked) ; field requested: IC50
Result :: 63

Query :: Query (molecule): O=C1CCC(N2Cc3cc(CCCN4CCN(c5ncc(-c6cccc(Cl)c6)cc5C(F)(F)F)CC4)ccc3C2=O)C(=O)N1 (centres unmarked) ; field requested: IC50
Result :: 25.7

Query :: Query (molecule): O=C1CCC(N2Cc3cc(C(=O)NCC4CCN(c5ncc(-c6ccc7ccccc7c6)cn5)CC4)ccc3C2=O)C(=O)N1 (centres unmarked) ; field requested: IC50
Result :: 2.6

Query :: Query (molecule): O=C1CCC(N2Cc3cc(C(=O)NCC4CCN(c5nccc(-c6cccc7ccccc67)n5)CC4)ccc3C2=O)C(=O)N1 (centres unmarked) ; field requested: IC50
Result :: 4.5

Query :: Query (molecule): O=C1CCC(N2Cc3cc(CNCC4(F)CCN(c5ncc(-c6cccc(Cl)c6)cc5C(F)(F)F)CC4)ccc3C2=O)C(=O)N1 (centres unmarked) ; field requested: IC50
Result :: 1.2

Query :: Query (molecule): O=C1CCC(N2Cc3cc(CNCC4CCN(c5ncc(-c6cc(F)cc(Cl)c6)cc5C(F)(F)F)CC4)ccc3C2=O)C(=O)N1 (centres unmarked) ; field requested: IC50
Result :: 1.5
